Reference source: ChEMBL document CHEMBL3879915

- System: UniProt O14744
- Protocol Text: Inhibition of PRMT5 in human Z138 cells assessed as decrease in di-methyl arginine levels after 96 hrs by Western blot method
pEC50: −log10 of the molar value.
Recorded Endpoint: pEC50

- CS(=O)(=O)Nc1cccc(C(=O)NCC(O)CN2CCc3ccccc3C2)c1 (stereo not given): 6.00 to 7.00
- NC(=O)c1ccc(C(=O)NCC(O)CN2CCc3ccccc3C2)cc1 (stereo not given): 6.00 to 7.00

List pEC50 for every entry below, keeping the order given.
1. OC(COc1cccc(-c2ccc3ncn(Cc4ccccc4)c3c2)c1)CN1CCc2ccccc2C1 (stereo not given)
2. Cn1cnc2ccc(NCC(=O)NCC(O)CN3CCc4ccccc4C3)cc21 (stereo not given)
3. O=C(NC[C@H](O)CN1CCc2ccccc2C1)c1cccc(-c2ccccn2)c1
4. CCN(c1cccc(C(=O)NCC(O)CN2CCc3ccccc3C2)c1)C1CCOCC1 (stereo not given)
5. OC(COc1cccc(-c2cccc3cccnc23)c1)CN1CCc2ccccc2C1 (stereo not given)
6. CNCCOc1cccc(C(=O)NCC(O)CN2CCc3ccccc3C2)c1 (stereo not given)
7. CN(C)S(=O)(=O)c1ccccc1OCC(=O)NCC(O)CN1Cc2ccccc2C1 (stereo not given)

A:
5.00 to 6.00
5.00 to 6.00
> 7.00
6.00 to 7.00
6.00 to 7.00
5.00 to 6.00
6.00 to 7.00

* * *

- System: PRMT5/MEP50 complex (Homo sapiens)
- Sequence (O14744 whole entry, the tested form may be a part): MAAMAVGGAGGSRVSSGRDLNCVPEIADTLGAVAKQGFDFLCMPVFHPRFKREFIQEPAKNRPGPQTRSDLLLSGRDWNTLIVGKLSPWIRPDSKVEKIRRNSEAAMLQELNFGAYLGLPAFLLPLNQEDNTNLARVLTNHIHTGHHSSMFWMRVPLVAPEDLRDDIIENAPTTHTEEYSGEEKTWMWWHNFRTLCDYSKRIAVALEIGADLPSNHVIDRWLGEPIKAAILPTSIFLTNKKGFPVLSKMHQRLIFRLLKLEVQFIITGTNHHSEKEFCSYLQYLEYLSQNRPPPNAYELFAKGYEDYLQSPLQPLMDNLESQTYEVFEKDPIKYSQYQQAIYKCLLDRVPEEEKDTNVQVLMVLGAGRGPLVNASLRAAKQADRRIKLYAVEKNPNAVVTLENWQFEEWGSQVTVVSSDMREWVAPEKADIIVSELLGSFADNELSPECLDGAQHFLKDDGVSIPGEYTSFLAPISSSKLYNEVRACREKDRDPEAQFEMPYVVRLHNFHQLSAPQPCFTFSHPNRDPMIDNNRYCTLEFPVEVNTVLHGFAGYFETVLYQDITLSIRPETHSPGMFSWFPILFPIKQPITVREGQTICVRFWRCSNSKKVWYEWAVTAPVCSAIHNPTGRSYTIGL
- Sequence (Q9BQA1 whole entry, further chain, the tested form may be a part): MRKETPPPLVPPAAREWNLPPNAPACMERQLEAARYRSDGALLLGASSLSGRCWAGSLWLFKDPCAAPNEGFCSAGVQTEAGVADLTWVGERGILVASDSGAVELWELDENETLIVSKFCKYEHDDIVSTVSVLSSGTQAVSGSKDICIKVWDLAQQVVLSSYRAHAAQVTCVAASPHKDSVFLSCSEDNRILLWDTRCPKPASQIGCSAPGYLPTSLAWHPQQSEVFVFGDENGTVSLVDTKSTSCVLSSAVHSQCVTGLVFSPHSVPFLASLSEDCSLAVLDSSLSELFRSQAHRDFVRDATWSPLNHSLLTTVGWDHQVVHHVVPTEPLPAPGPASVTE
- Protocol Text: Inhibition of recombinant human fetal brain FLAG-tagged PRMT5/full length human testis 6His-tagged MEP50 expressed in baculovirus infected insect Sf9 cells using human histone H4 (1 to 15 residues) as substrate preincubated for 30 mins followed by [3H]-SAM addition
Recorded Endpoint: IC50

A selection of reference data follows.
* Cn1cc2ccc(-c3cccc(OCC(O)CN4CCc5ccccc5C4)c3)nc2n1 (centres undefined) | < 100 nM
* O=C(COc1cccc2c1CNCC2)NCC(O)CN1CCc2ccccc2C1 (centres undefined) | < 100 nM
* CS(=O)(=O)Nc1ncccc1OCC(=O)NCC(O)CN1CCc2ccccc2C1 (centres undefined) | > 10000 nM
* CNC(=O)Cn1ccc2cnc(-c3ccnc(NCC(O)CN4CCc5ccccc5C4)c3)nc21 (centres undefined) | < 100 nM
* CN1C(=O)COc2cccc(OCC(=O)NCC(O)CN3CCc4ccccc4C3)c21 (centres undefined) | < 100 nM
* OC(COc1cccc(CNC2CCCCC2)c1)CN1CCc2ccccc2C1 (centres undefined) | 101 to 1000 nM
* CN1CCC(n2cnc3ccc(-c4cccc(OCC(O)CN5CCc6ccccc6C5)c4)cc32)CC1 (centres undefined) | < 100 nM
* COc1ccc(Cn2ccc(-c3ccc(OC[C@@H](O)CN4CCc5ccccc5C4)cc3)n2)cc1 | 10000 to 40000 nM

Q: // output IC50; input OC(COc1cccc(-c2ccccn2)c1)CN1CCc2ccccc2C1 (centres undefined) ; system PRMT5/MEP50 complex (Homo sapiens)
A: 1000 to 10000 nM

* * *

- System: Protein arginine N-methyltransferase 5 (Homo sapiens)
- Protocol Text: Inhibition of PRMT5 in human Z138 cells assessed as decrease in di-methyl arginine levels after 96 hrs by Western blot method
- Assay type: cell-based
Exercise: state measured EC50 for each of the compounds provided.

Here is how some compounds turned out for EC50.
* O=C(COc1c(CN2CCOCC2)ccc2cccnc12)NC[C@H](O)CN1CCc2ccccc2C1 | 101 to 1000 nM
* Cn1ccnc1-c1ccccc1OCC(=O)NCC(O)CN1CCc2ccccc2C1 (centres undefined) | 1000 to 10000 nM

Here are 6 compounds. What values of EC50 were reported for them?
1. O=C(COc1ccccc1S(=O)(=O)N1CCNCC1)NCC(O)CN1CCc2ccccc2C1 (centres undefined)
2. CC(C)Oc1ccc(F)c(-c2cccc(OCC(O)CN3CCc4ccccc4C3)c2)c1 (centres undefined)
3. CN(C)C(=O)c1ccccc1OCC(=O)NCC(O)CN1CCc2ccccc2C1 (centres undefined)
4. Cn1cc2c(OCC(=O)NCC(O)CN3CCc4ccccc4C3)cccc2n1 (centres undefined)
5. CC(=O)N1CCC(n2ccc3cnc(-c4cccc(OCC(O)CN5CCc6ccccc6C5)c4)nc32)CC1 (centres undefined)
6. COc1ccc(-c2cccc(OCC(O)CN3CCc4ccccc4C3)c2)cc1 (centres undefined)

A:
1. < 100 nM
2. 1000 to 10000 nM
3. 101 to 1000 nM
4. 1000 to 10000 nM
5. 101 to 1000 nM
6. 1000 to 10000 nM

Q: Please supply the value of reported EC50 for the item Cn1cc2ccc(-c3ccnc(NCC(O)CN4CCc5ccccc5C4)c3)cc2n1 (centres undefined)
A: 101 to 1000 nM

* * *

- System: Protein arginine N-methyltransferase 5 (Homo sapiens, UniProt O14744)
- Sequence (O14744 whole entry): as the sequence (O14744 whole entry, the tested form may be a part) above
- Protocol Text: Inhibition of PRMT5 in human Z138 cells assessed as decrease in di-methyl arginine levels after 96 hrs by Western blot method
pEC50: −log10 of the molar value.
Please provide measured pEC50 for the entries that follow.

• OC(COc1cccc(-c2ncc3ccn(C4CCNCC4)c3n2)c1)CN1CCc2ccccc2C1 (stereo not given) = 6.00 to 7.00

Look at each compound and report its pEC50.
1. COc1ccc(-c2cccc(OCC(O)CN3CCc4ccccc4C3)c2)c(Cl)c1 (stereo not given)
2. O=C1CN(c2ccccc2F)CCN1CC(O)CN1CCc2ccccc2C1 (stereo not given)
3. O=C(COc1cccc2cccnc12)NCC(O)CN1CCc2ccccc2C1 (stereo not given)
4. CN1CCCC1c1cccc(C(=O)NCC(O)CN2CCc3ccccc3C2)c1 (stereo not given)
5. CN1CCN(C(=O)Cn2ccc3cnc(-c4ccnc(NCC(O)CN5CCc6ccccc6C5)c4)nc32)CC1 (stereo not given)
6. O=C(COc1cccc(F)c1)NCC(O)CN1CCc2ccccc2C1 (stereo not given)

A:
5.00 to 6.00
< 4.30
> 7.00
6.00 to 7.00
> 7.00
6.00 to 7.00

Working through the 8 compounds below one at a time, give pEC50 for each.
1. O=C(Cn1cnc2ccc(-c3cccc(OCC(O)CN4CCc5ccccc5C4)c3)cc21)N1CCOCC1 (stereo not given)
2. CN1CCC(n2cnc3ccc(-c4ccnc(NCC(O)CN5CCc6ccccc6C5)c4)cc32)C1 (stereo not given)
3. CS(=O)(=O)c1ccccc1-c1cccc(OCC(O)CN2CCc3ccccc3C2)c1 (stereo not given)
4. O=C1CN(c2ccc(Cl)cc2)CCN1CC(O)CN1CCc2ccccc2C1 (stereo not given)
5. Cc1cn(C)c2cc(-c3cccc(OCC(O)CN4CCc5ccccc5C4)c3)ccc12 (stereo not given)
6. CC(C)n1cnc2ccc(-c3cccc(OCC(O)CN4CCc5ccccc5C4)c3)cc21 (stereo not given)
7. Cc1c(NC2CCOCC2)cccc1C(=O)NCC(O)CN1CCc2ccccc2C1 (stereo not given)
8. NC(=O)c1cccc(C(=O)NCC(O)CN2CCc3ccccc3C2)c1 (stereo not given)

A:
5.00 to 6.00
6.00 to 7.00
5.00 to 6.00
6.00 to 7.00
5.00 to 6.00
6.00 to 7.00
> 7.00
5.00 to 6.00

For each entry beneath this line, provide reported pEC50.
1. C[C@H](Oc1cccc2cccnc12)C(=O)NC[C@H](O)CN1CCc2ccccc2C1
2. CS(=O)(=O)c1ccccc1OCC(=O)NCC(O)CN1CCc2ccccc2C1 (stereo not given)
3. OC(COc1cccc(-c2ccc3cnoc3c2)c1)CN1CCc2ccccc2C1 (stereo not given)
4. Cc1ccncc1-c1cccc(OCC(O)CN2CCc3ccccc3C2)c1 (stereo not given)
5. Cn1ccc2cnc(-c3ccnc(NCC(O)CN4CCc5ccccc5C4)c3)nc21 (stereo not given)

A:
1: 6.00 to 7.00; 2: > 7.00; 3: 4.40 to 5.00; 4: 6.00 to 7.00; 5: > 7.00

Quick request: pEC50 for each listed item, please.
1. CN1CCN(Cc2cccc(C(=O)NCC(O)CN3CCc4ccccc4C3)c2)CC1 (stereo not given)
2. CN(CC(O)CN1CCc2ccccc2C1)c1cccc(CNC2CCOCC2)c1 (stereo not given)
3. COC(=O)c1cncc(-c2cccc(OCC(O)CN3CCc4ccccc4C3)c2)c1 (stereo not given)
4. CN1CCN(S(=O)(=O)c2ccccc2OCC(=O)NCC(O)CN2CCc3ccccc3C2)CC1 (stereo not given)
5. O=C(NCC(O)CN1CCc2ccccc2C1)c1cccc(-c2cccnc2)c1 (stereo not given)

A:
["6.00 to 7.00", "5.00 to 6.00", "< 4.70", "6.00 to 7.00", "> 7.00"]

* * *

Would you kindly list pEC50 for each of these compounds?
- System: Protein arginine N-methyltransferase 5 (Homo sapiens, UniProt O14744)
- Protocol Text: Inhibition of PRMT5 in human Z138 cells assessed as decrease in di-methyl arginine levels after 96 hrs by Western blot method
pEC50: −log10 of the molar value.

Below: 10 compounds and their reported pEC50.
• OC(COc1cccc(-c2cc(OC(F)(F)F)ccc2Cl)c1)CN1CCc2ccccc2C1 (stereo unspecified) = 4.40 to 5.00
• CN1CCN(c2ccc(-c3cccc(OCC(O)CN4CCc5ccccc5C4)c3)cn2)CC1 (stereo unspecified) = 5.00 to 6.00
• O=C(NCC(O)CN1CCc2ccccc2C1)c1cccc(C2CCCN2)c1 (stereo unspecified) = 5.00 to 6.00
• O=C(COc1cccc2c1CNCC2)NCC(O)CN1CCc2ccccc2C1 (stereo unspecified) = 6.00 to 7.00
• O=C(c1cccc(-c2cccc(OCC(O)CN3CCc4ccccc4C3)c2)c1)N1CCOCC1 (stereo unspecified) = 5.00 to 6.00
• Cn1cnc2ccc(-c3cccc(OCC(O)CN4CCc5ccccc5C4)c3)nc21 (stereo unspecified) = 6.00 to 7.00
• Cn1cc2ccc(-c3cccc(NCC(O)CN4CCc5ccccc5C4)c3)nc2n1 (stereo unspecified) = 6.00 to 7.00
• OCc1cccc(-c2cccc(OCC(O)CN3CCc4ccccc4C3)c2)c1 (stereo unspecified) = 5.00 to 6.00
• Cn1cnc2ccc(OCC(=O)NCC(O)CN3CCc4ccccc4C3)cc21 (stereo unspecified) = 6.00 to 7.00
• O=C(NCC(O)CN1CCc2ccccc2C1)c1cccc(N2CCOCC2)c1 (stereo unspecified) = 6.00 to 7.00

Fill in pEC50 for each of the 3 compounds listed.
1. Cn1cnc2ccc(-c3ccnc(NCC(O)CN4CCc5ccccc5C4)n3)cc21 (stereo unspecified)
2. O=C(COc1cccc2ccc(N3CCOCC3)nc12)NCC(O)CN1CCc2ccccc2C1 (stereo unspecified)
3. CN1CCc2cccc(OCC(=O)NCC(O)CN3CCc4ccccc4C3)c2C1 (stereo unspecified)

A:
1. 6.00 to 7.00
2. 6.00 to 7.00
3. 5.00 to 6.00

Batch of 6 compounds: report pEC50 for each.
1. CC(C)(C)OC(=O)Nc1cccc(C(=O)NCC(O)CN2Cc3ccccc3C2)c1 (stereo unspecified)
2. CC(=O)N1CCN(S(=O)(=O)c2ccccc2OCC(=O)NCC(O)CN2CCc3ccccc3C2)CC1 (stereo unspecified)
3. OC(COc1cccc(-c2csc3ccccc23)c1)CN1CCc2ccccc2C1 (stereo unspecified)
4. NC(=O)c1cccc(-c2cccc(OCC(O)CN3CCc4ccccc4C3)c2)c1 (stereo unspecified)
5. CS(=O)(=O)c1cccc(OCC(=O)NCC(O)CN2CCc3ccccc3C2)c1 (stereo unspecified)
6. COc1ccc(-c2cccc(OCC(O)CN3CCc4ccccc4C3)c2)cc1Cl (stereo unspecified)

A:
5.00 to 6.00
5.00 to 6.00
5.00 to 6.00
5.00 to 6.00
6.00 to 7.00
4.40 to 5.00

Would you mind listing pEC50 for each of the following compounds?
1. CN(C)c1ccccc1N1CCN(C[C@H](O)CN2CCc3ccccc3C2)C(=O)C1
2. CN1CCc2c(cccc2OCC(=O)NCC(O)CN2CCc3ccccc3C2)C1 (stereo unspecified)
3. O=C(COc1ccccc1N1CCNCC1)NCC(O)CN1CCc2ccccc2C1 (stereo unspecified)
4. CNC(=O)c1cncc(-c2cccc(OCC(O)CN3CCc4ccccc4C3)c2)c1 (stereo unspecified)

A:
1: 6.00 to 7.00; 2: 6.00 to 7.00; 3: 6.00 to 7.00; 4: 5.00 to 6.00
